The origin of these recorded values is PubChem BioAssay (NCATS).

Assay: High-throughput drug toxicity screening in the BPDCN cell line Gen2.2 (AID 1224824);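 note: cells exposed to compounds for 48 h before reading; 100% = DMSO and 0% = bortezomib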
Conditions: Gen2.2 BPDCN cells; at 45.8 µM (top of the series) unless noted
measured_metric: cell viability, % of control (lower = more cytotoxic) (%)
One number for each entry, in %.

> print(dat)
                                    compound  unit.annotation  experimental.value
 1  CCC(C)(C)C(=O)O[C@H]1C[C@@H](C)C=C2C=C[C@H](C)[C@H](CC[C@@H]3C[C@@H](O)CC(=O)O3)[C@H]21                %                26.7
 2  CCn1c(-c2nonc2N)nc2c(C#CC(C)(C)O)ncc(OC[C@H]3CCCNC3)c21                %                64.9
 3  O=C(C=Cc1ccc(/C=C/C(=O)Nc2ccc(C3=NCCN3)cc2)cc1)Nc1ccc(C2=NCCN2)cc1                %                 203
 4  CCn1cc(C(=O)O)c(=O)c2cc(F)c(N3CCNC(C)C3)c(F)c21 (stereo not given)                %                 176
 5  Cc1csc(NC(=O)c2sc3nc4c(c(C(F)(F)F)c3c2N)CCC4)n1                %                36.4
 6  CN(C)c1ccc(Nc2nc(N)n(C(=O)c3c(F)cccc3F)n2)cc1                %                73.4
 7  CC[C@H](Nc1ncnc2nc[nH]c12)c1nc2cccc(F)c2c(=O)n1-c1ccccc1                %                4.94
 8  COc1ccccc1[C@H](c1cccc2ccccc12)[C@@](C)(C#N)C(=O)N1CCC(c2cccc(C(F)(F)F)c2)CC1                %                2.69
 9  CC(c1cc2ccccc2s1)N(O)C(N)=O (stereo not given)                %                 150
10  C#Cc1cccc(Nc2ncnc3cc(OCCOC)c(OCCOC)cc23)c1                %                24.7

// each compound listed below needs its cell viability, % of control (lower = more cytotoxic)
1. COc1ccc(-c2oc3cc(OC)ccc3c2C(=O)c2ccc(C#N)cc2)cc1
2. Nc1ncnc2nc(-c3ccc(N4CCOCC4)nc3)cc(-c3cccc(Br)c3)c12
3. COc1ccc(CC2=NN3C([C@@H](CCc4ccccc4)[C@@H](C)O)=NC(C)C3C(=O)N2)cc1OC (stereo not given in full)
4. CCOc1cc(C=C2C(=O)N(c3ccccc3)N=C2C)cc(Cl)c1OCC(=O)OC

Result string:
1. 84.5
2. 76
3. 276
4. 14.1

// each compound listed below needs its cell viability, % of control (lower = more cytotoxic)
1. CC(C)(Sc1ccc(CCN(CCCCC2CCCCC2)C(=O)NC2CCCCC2)cc1)C(=O)O
2. O=C(NOC[C@H](O)CO)c1ccc(F)c(F)c1Nc1ccc(I)cc1F
3. CCC(=O)N[C@H]1CC[C@H](C(=O)N(C)c2ccc(-c3nc4ccccc4o3)cc2)C1
4. COc1ccc2c3n(c(=NC(=O)c4cccnc4)nc2c1OC)CCN3
5. CNC[C@H](O)c1cccc(O)c1

Result string:
1: 75.1; 2: 14.5; 3: 198; 4: 9.57; 5: 196
